These measurements were taken from the DeepSol protein solubility set.

procedure text: soluble on expression in E. coli; label from the status in PepcDB or PDB records

[
  {
    "sequence data": "MGSDKIHHHHHHMNIQTFMLPSQKVSPELEILHADLQTEGQHPPILFLHGYTSGAWQFAQHWMPTLQANGWQSFALNLRGHGGSAGRETVTTARFLDYADDVARAIAYVRGQTDQTPILIGHSLGSVLARHYAAEHSVPGLGLLITIGMQGFMGWMMKRYPLQGMAGMMTGRPSAMFAKFGPQYDVMYAGHNKETVRGNVERLMAQPDSDKVFMDLSKLKLGLPAKSTPTFVMAGTRDPIASVESVEALGRSYAVEPVMLQDKAHDIVAGPDWNDGLQHLQAWLETAKF",
    "soluble on expression in E. coli": "not soluble"
  },
  {
    "sequence data": "MGSDKIHHHHHHMLVYPSGIDLSTSTLRYLSDLLRARRRERGTRWRRLTTDRQALLALAHLRCGHTYAQLAAGFGIGLATVYRYIVEAVEVLAALAPTLQQAMTFAANKAFVILDGTLLHIDRIAADRPYYSGKHKRHGMNVQVIADAFGRLLWASPALPGAVHDIKAARIHGIIEALTQAGIRTWADKGYQGAQGTIRVPYRGRWSTLPAGKRAVNSSHAKIRAVGEQANATLKSWRLLRKLRCSTTRITDIVKAVLALHLATAA",
    "soluble on expression in E. coli": "not soluble"
  }
]

* * *

procedure text: soluble on expression in E. coli; label from the status in PepcDB or PDB records

[
  {
    "sequence data": "MGSDKIHHHHHHMIKVAAAGGGTGGHLYPLLAILETLAKRVDVKVLFFAVKGKIDERVVRKDHPEFETVSIDVRGLLRPLHHPKNLWRTLKIGIATIEVKKHLKRFKPDLVVLTGGYISGVVGLAAKDLGIPIFVHEQNVVPGLAVKVLSQYAKKVFVSFERTRDYLREWQDKIVVTGCPVRETEKEAPLKDFVLVLGGSLGSEAINELMEKVYPELQETQFVHSTGSDDWTERLSVFPNVTALTYIDPMGAYWKKAIASISRAGASTIAEMMYYGVPGILIPWESSAESHQLENALEAERLGYAIVIRENEASPRKIIESIDKVVKKGKIEKMKENPASKISKEILGEIM",
    "soluble on expression in E. coli": "not soluble"
  },
  {
    "sequence data": "MGSDKIHHHHHHMIWKLSERKDWNSLEQQFGWVRDMNQVPQHTVHHAEGSVAVHTRMVLEALLRQPAYPMLPEQEREILWAAALLHDVEKRSTSVDEGNGQVTSKNHAKRGETTVRTLLYRDIPAPFNIREHIASLVRHHGLPIWLMEREDPLKRACEASLRLDTSLLKQLTVADICGRISTDKEVLLEATEFFEMFCREQQCWGKAREFANGTARFHYFHTPRSYIDYVPHDDFKCGVTLLVGLPGMGKDYYIESRCADMPVVSLDAIRRKHKFSPTDKAANGWVAQTAKEQARIYLRKGQDFIWNATNVSRQRRTQLIDLFITYGARVKIVYIEKPYSVWRRQNSTREYEVPETVLDKMLGRLEVPQLTEAHEVVYVVEE",
    "soluble on expression in E. coli": "not soluble"
  },
  {
    "sequence data": "MLKKRFYILLFFCLLLGGNVNSSTVDKGDNNAPFENKRTETDYLPIADPFVMLYNNKYYAYGTGGTVNEGFACFSSDDLKNWKRERQALSADDSYGKWGFWAPEVYYIQSKKKFYMFYSVEEHICVATSDSPVGPFRQESKQPIWEEKSIDTSLFIDDDGTPYLYFVRFTDGNVIWVAQMTDDLMKIKKETLSECIKAEEPWELLQAKVAEGPSVLKKKGMYYLIYSANHYQNKGYGVGYATSKSPMGPWTKYDKNPLLQGDESTGLVGTGHGAPFQCKDGSWKYIFHAHWNKEKIHPRTSYFKDFTISKQGVVSITGKVIKPKVIK",
    "soluble on expression in E. coli": "not soluble"
  },
  {
    "sequence data": "VKIELTVNGLKIQAQYQNEEIENVHKPLLHMLAALQTVNPQRRTVVFLCAPPGTGKSTLTTFWEYLAQQDPELPAIQTLPMDGFHHYNSWLDAHQLRPFKGAPETFDVAKLTENLRQVVEGDCTWPQYDRQKHDPVEDALHVTAPLVIVEGNWLLLDDEKWLELASFCDFSIFIHAPAQILRERLISRKIAGGLTRQVAEAFYARTDGPNVERVLMNSRQANLIVEMTEEGRYHFTS",
    "soluble on expression in E. coli": "soluble"
  },
  {
    "sequence data": "MNNQLTEITVVRRQSAPRLEFEAAAIYEYPEHLRPFLSEAPALPGVYIFHSESDTLPLYIGKSVNIRSRVLSHLRTPDEATMLRQARRISWICTAGEMGALLLEARLIKEQQPLFNKRLRRNRQLCSLQLSEQKIEVVSARSVDFSHEPNLFGLFANRRAALQSLQNLADEQKLCYGLLGLEPVSRGRACFRFALKRCAGACCGQETPQAHFLRLQASLERLRVVCWPWKGAIALKESRPQMTQFHIINNWLWLGAVPSLDEAATLVRTPAGFDQDGYKILCKPLMSGQYEIIELHTDCRQS",
    "soluble on expression in E. coli": "not soluble"
  },
  {
    "sequence data": "MGSDKIHHHHHHMTTFEVKDTAHVAFKIINLRCPHCHHAASFSGFDGCSDLRYNVQAKRHPSGATTNTFDIAGMRRCPNTTCRKLVFVMEDKYGEIESFPPEVIDFDASNLPSDILSSLEEAIRCHAANCYRASALMVRRTLEELCDNKSATGKDLKTRLAALGTVAVIPSELLSAADELRILGNDAAHIEAKDYDSIGKEESEIAIELAKELLKAVYQYTSLVARLTALKKPKQ",
    "soluble on expression in E. coli": "not soluble"
  },
  {
    "sequence data": "MAHHHHHHMGTLEAQTQGPGSMSFSNVPAGKDLPQDFNVIIEIPAQSEPVKYEADKALGLLVVDRFIGTGMRYPVNYGFIPQTLSGDGDPVDVLVITPFPLLAGSVVRARALGMLKMTDESGVDAKLVAVPHDKVCPMTANLKSIDDVPAYLKDQIKHFFEQYKALEKGKWVKVEGWDGIDAAHKEITDGVANFKK",
    "soluble on expression in E. coli": "soluble"
  },
  {
    "sequence data": "MKIRQEKPAEYQAVERLTYQAFKELNLTENWRPTEHFIVHLLRESADFIPELSLVSETDQGKLTGHIMSSKAKLRLPDHTEKAVLTVGPLSVHPEAQNTGVGSALIKHSVQKAKELGIGGLIILGHPTYYTKFGFVPATTFQITLPEKETSEALLALELLPGYFGTSGGEWHFSTCFAYPETHPAELEAFEAELGINE",
    "soluble on expression in E. coli": "not soluble"
  },
  {
    "sequence data": "LKCSTVVCVICLEKPKYRCPACRVPYCSVVCFRKHKEQCNPET",
    "soluble on expression in E. coli": "soluble"
  },
  {
    "sequence data": "VPTPKRPRGRPKGSKNKGAAKTRKT",
    "soluble on expression in E. coli": "soluble"
  },
  {
    "sequence data": "GMWSYDKITDYLMNNLGEKRYKHSLGVMDTAVRLAGIYNEDTEKARIAGLVHDCAKKLPGEKIIEICTNEGYELGDEDIRNSYLLHGLAGRILAKKVIGIDDEDVLNAIEFHTTGRPNMSLLEKIIYIADYIEPGREFKGVDELRKAADEDLNKALLMSFDNTIKFVIDKGGFLHHNTIEARNYLISRKG",
    "soluble on expression in E. coli": "soluble"
  },
  {
    "sequence data": "MSLIREAQRSELPAILELWLESTTWGHPFIKANYWRDCIPLVRDAYLANAQNWVWEEDGKLLGFVSIMEGRFLAAMFVAPKAVRRGIGKALMQYVQQRHPHLMLEVYQKNQPAINFYQAQGFHIVDCAWQDETQLPTWIMSWPVVQTLEGGSHHHHHH",
    "soluble on expression in E. coli": "soluble"
  },
  {
    "sequence data": "MGLIEDKALVEAALFVAGRPLSLKELSKALGIKSLDYLEKLIELIASEYAERKSAIEIVKVAGDKWVMQVKQEYSQRVIPLMPKPELSTGELKTLALIAYLQPVEQSKIVKLRGSQAYEHIRKLLEMGLIYAEPYERTRLLGTTEKFAELYGFPENDPMLIKETFKKVIHAEYSDLMKKIEESEKKKE",
    "soluble on expression in E. coli": "soluble"
  }
]
